Listing of entries alongside the reported EC50.
target-under-test: Ec FimHLD
method-notes: ELISA

binder	u	EC50
Kp1 2E02 (antibody, V domains shown) VH: EVQLQQSGPVLVKPGPSVKISCKASGFTFTDYYIHWVKRSHGKSLEWIGLVSPYNGGTFYNQKFKGKATLTVDTSSNTAYMELTSLTSEDSAVYYCARLGVNWYFDVWGTGTTVTVSS VL: QIVLTQSPALMAASPGEKVTLTCSVSSSISSSTLHWYQQKSETSPKPWIYGTSNLASGVPVRFSGSGSGTSYSLTISSMEAEDAATYYCQQWSTYPYTFGGGTKLEIKR	µg/mL	0.0127
Ec F11 (antibody, V domains shown) VH: QVQLKESGPGLVAPSQSLSITCTVSGFSLTNYAISWVRQPPGKGLEWLGIIWTGGGTLYNSALKSRPSISKDNSKSQVFLKMNSLQTDDTARYYCARAYYSNYDWYFDVWDTGTTVTVSS VL: DIQMTQSPSSLSASLGDRVTISCSASQGISNYLNWYQQKPDGTVKLLIYYTSSLHSGVPSRFSGSGSGTDYSLTISNLEPEDIATYYCQQYSQVPYTFGGGTKLEIKR	µg/mL	0.0273
Kp 2D07 (antibody, V domains shown) VH: EVQLQQSGPELVRPGASVKISCKASGYTFTDYYIHWLKQRPGQGLEWIGLIFPGSGSIYCNEKFKGKATLTVDKSSTTAYMLLSSLTSEDSAVYFCARWETTAWYFDVWGTGTTVTVSS VL: QIVLTQSPAILSASPGEKVTMTCRASLSVSYMHWYQQKPGSSPKPWIYATSNLASGVPARFSGSGSGTSYSLTVSRVEAEDAATYYCQQWRSYPYTFGGGTKLEIKR	µg/mL	0.0129
